assayed_target: UniProtKB Q9Y6L6
Sequence (Q9Y6L6 whole entry): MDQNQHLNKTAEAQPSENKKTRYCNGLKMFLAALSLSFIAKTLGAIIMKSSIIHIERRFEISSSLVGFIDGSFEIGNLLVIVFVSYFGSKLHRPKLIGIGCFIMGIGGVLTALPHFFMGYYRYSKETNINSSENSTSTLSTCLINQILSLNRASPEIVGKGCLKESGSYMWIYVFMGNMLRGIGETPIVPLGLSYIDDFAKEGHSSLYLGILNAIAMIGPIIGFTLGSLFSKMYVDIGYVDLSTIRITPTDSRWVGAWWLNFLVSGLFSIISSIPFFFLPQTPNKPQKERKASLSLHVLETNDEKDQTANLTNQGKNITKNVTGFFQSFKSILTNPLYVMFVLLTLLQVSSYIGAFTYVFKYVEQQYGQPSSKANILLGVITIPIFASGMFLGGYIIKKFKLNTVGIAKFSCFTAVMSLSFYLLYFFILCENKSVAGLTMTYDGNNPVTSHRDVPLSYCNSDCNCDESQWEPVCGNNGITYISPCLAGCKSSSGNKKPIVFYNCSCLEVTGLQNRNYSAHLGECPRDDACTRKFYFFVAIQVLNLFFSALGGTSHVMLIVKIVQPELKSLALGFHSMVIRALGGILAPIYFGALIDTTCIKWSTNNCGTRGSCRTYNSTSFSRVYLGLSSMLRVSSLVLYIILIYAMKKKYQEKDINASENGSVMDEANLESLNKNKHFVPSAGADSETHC
experiment_description: in vitro
applied_conditions: hek293 cells
pIC50: −log10 of the molar value.

| structure_as_smiles | pIC50 |
| --- | --- |
| O=C(O)CCCCCCCCCCCCC(=O)O | 5.40 to 5.80 |

###

assayed_target: UniProt Q9Y6L6
experiment_description: in vitro
Assay type: cell-based
applied_conditions: oatp1b1-transfected cells
inhibition at 30 µM by entry:
measurement_kind: inhibition at 30 µM

| compound | readout_value |
| --- | --- |
| C[C@H](CCC(=O)NCCS(=O)(=O)O)[C@H]1CC[C@H]2[C@@H]3CC[C@@H]4C[C@H](OS(=O)(=O)O)CC[C@]4(C)[C@H]3CC[C@]12C [TLS, Taurolithocholate 3-sulfate] | > 70% |
| C[C@H](CCC(=O)NCC(=O)O)[C@H]1CC[C@H]2[C@@H]3CC[C@@H]4C[C@H](O)CC[C@]4(C)[C@H]3C[C@H](O)[C@]12C [Glycodeoxycholate] | > 70% |
